protocol-summary: Excretion study of unchanged drug in urine, feces and bile after oral administration (UPLC-MS/MS)
Type: in vivo, Sprague-Dawley rats
assay-conditions: male, Sprague-Dawley, rat; urine, at 72 h, 30 mg/kg oral, rats; read-out: recovery of unchanged drug in urine (accumulative excretion rate, % of administered dose)
measurement-name: dose excreted

Problem: Can you look up the measured dose excreted of CC(NC(=O)C(O)Cc1ccc(O)c(O)c1)C(=O)N1CCCC1C(=O)OC1CC2CCC1(C)C2(C)C (stereo not shown) [221s (2,9)] for me?
Solution: 0.02%

---

protocol-summary: Excretion study of unchanged drug in urine, feces and bile after oral administration (UPLC-MS/MS)
Assay type: in vivo, Sprague-Dawley rats
assay-conditions: male, Sprague-Dawley, rat; feces, at 72 h, 30 mg/kg oral, rats; read-out: recovery of unchanged drug in feces (accumulative excretion rate, % of administered dose)
measurement-name: dose excreted
Your answer should be a number followed by the unit of measure.

Problem: Can you look up the measured dose excreted of CC(NC(=O)C(O)Cc1ccc(O)c(O)c1)C(=O)N1CCCC1C(=O)OC1CC2CCC1(C)C2(C)C (stereo not shown) [221s (2,9)] for me?
Solution: 0.73%
